# Tested on: FMC63
# Sequence (as listed by the source): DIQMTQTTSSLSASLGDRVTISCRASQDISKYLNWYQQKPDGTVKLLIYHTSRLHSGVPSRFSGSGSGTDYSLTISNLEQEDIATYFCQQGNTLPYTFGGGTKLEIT
# Sequence (as listed by the source): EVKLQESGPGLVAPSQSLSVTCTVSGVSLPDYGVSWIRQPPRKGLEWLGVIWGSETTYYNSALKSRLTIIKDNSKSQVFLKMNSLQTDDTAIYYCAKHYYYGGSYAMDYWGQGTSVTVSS
# test: CD19 variant binding to anti-CD19 antibody FMC63 (score)
# experimental context: Table 1A, CD19 single mutants (positions of SEQ ID NO:2)
endpoint: FMC63 Binding Score

// returns reported FMC63 Binding Score for input W262K: CD19 variant (protein) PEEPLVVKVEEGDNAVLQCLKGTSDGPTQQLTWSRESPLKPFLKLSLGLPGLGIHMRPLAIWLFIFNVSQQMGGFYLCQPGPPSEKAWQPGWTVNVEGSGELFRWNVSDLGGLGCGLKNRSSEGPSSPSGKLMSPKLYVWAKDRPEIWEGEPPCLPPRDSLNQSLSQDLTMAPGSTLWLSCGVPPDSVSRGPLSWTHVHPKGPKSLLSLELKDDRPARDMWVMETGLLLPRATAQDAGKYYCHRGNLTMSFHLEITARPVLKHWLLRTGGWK
8.2 ± .7
